# System: Wolbachia pipientis
# assay.method.text: Anti-Wolbachia Cell-Based Screen
# Type: functional
# Set-up: scale not given: in the data most compounds retested in dose-response had high values
# condition: 5 µM
Screen size: about 48,000 compounds; about 13,000 (27%) showed an effect of 50% or more. Some of the results follow.
measurement.name: Percent Effect (%)
Could you give me the number in %? Just the number is fine.

// COc1cccc(CN2CCCC(Cn3nc(C)nc3C)C2)c1 (centres undefined) : Percent Effect value = 103.7

So for O=C(NCC1CCOCC1)[C@@H]1CC[C@@H]2[C@@H](CCN2Cc2ccncc2)O1.O=C(O)C(F)(F)F.O=C(O)C(F)(F)F , the logged Percent Effect turned out to be 108.2

Query Cc1ccn(CCC(=O)NCCc2ccco2)n1 yields Percent Effect of 109.8

So, Cc1nc(C)n(CC2CCCN(Cc3cccnc3)C2)n1 (centres undefined) ? Its Percent Effect was 89.08

Lab note: measured Percent Effect of CNC(=O)[C@H]1CC[C@@H]2[C@@H](CCN2C(=O)N(C)C)O1 was -9.576

What the record says about Cc1nc(C)n(CC2CCCN(Cc3ccc(C(N)=O)cc3)C2)n1 (centres undefined) : Percent Effect is -2.004

Measured Percent Effect of Cc1nc(C)n(CC2CCCN(Cc3ccc4c(c3)OCCO4)C2)n1 (centres undefined) : 92.75

The measured Percent Effect associated with O=C(O)C(F)(F)F.O=C1[C@H]2CN(C3CCOC3)C[C@H]2CN1c1ccccc1 (some centres undefined) reads -7.814

Recorded Percent Effect (molecule CCN(C(C)c1cccc(O)c1)S(=O)(=O)c1cccnc1 (centres undefined) ): -1.511

The molecule identified as O=c1oc(-c2cccs2)nn1CC(O)c1ccccc1 (centres undefined) registered its Percent Effect at 2.258

Lookup result for CC(C(=O)Nc1ncccn1)N1CCc2[nH]nc(C(F)(F)F)c2C1 (centres undefined) ; measured Percent Effect: -12.45

The measured Percent Effect associated with O=C(NCc1ccco1)[C@@H]1CC[C@@H]2[C@@H](CCN2CC2CC2)O1.O=C(O)C(F)(F)F reads -3.769

Quick note, Percent Effect for CC(C)Nc1nc(O)cc(C(C)n2ncc3ccccc3c2=O)n1 (centres undefined) landed at 144.2

According to the records, this molecule CC(c1cc(O)nc(NC2CCCC2)n1)n1ncc2ccccc2c1=O (centres undefined) displays Percent Effect of 143.5

Kindly note the recorded Percent Effect for Cc1noc(C)c1CN1C[C@@H](C(=O)O)[C@H](C(C)C)C1 , which is -19.42

Reported Percent Effect for CC(C(=O)NC1CC1)S(=O)(=O)c1cc2c(cc1Cl)OCCO2 (centres undefined) was -15.14

// Percent Effect value for CCN(CC)c1nc(O)cc(C(C)n2ncc3ccccc3c2=O)n1 (centres undefined) : 150.9

Query CCC(CC)N(Cc1cc(=O)n(C)c(=O)n1C)C1CC1 yields Percent Effect of -2.422

Sample CC(C)c1noc(Cn2ncc3ccccc3c2=O)n1 ; Percent Effect observed: -9.946

Percent Effect measured on O=C1CC(c2ccccc2)C2(CCN(C(=O)c3cnccn3)CC2)N1 (centres undefined) = -7.237

// sample Cc1ccc(NC2(C(=O)NCCCc3c(C)n[nH]c3C)CCCC2)cc1 , its Percent Effect was 12.56

// CC(C)(C)OC(=O)N1CSC[C@@H]1C(=O)NCc1ccc(C#N)cc1 : Percent Effect value = -6.965

The value of Percent Effect measured for the molecule CC(C)CC(NC(=O)C1=CCCC1)C(=O)N1CCC(CO)CC1 (centres undefined) turned out to be 0.4021

Entry Cc1cc(C)cc(NC(=O)CN2CCCC(n3cncn3)C2)c1 (centres undefined) ; Percent Effect = 8.702

Record summary for CC(NCCN1CCN(C(=O)C2CCCC2)CC1)c1ccccn1 (centres undefined) : reported Percent Effect = 4.295

Kindly note the recorded Percent Effect for O=C(NCCc1ccncc1)[C@@H]1CC[C@@H]2[C@@H](CCN2Cc2ccco2)O1.O=C(O)C(F)(F)F.O=C(O)C(F)(F)F , which is -6.425

Memo: Nc1nc(CCCNC(=O)C2CCCN(Cc3ccco3)C2)cs1 (centres undefined) , reported Percent Effect: 11.5

Percent Effect reported for this molecule COc1ccc(CN2CCCC(Cn3nc(C)nc3C)C2)cc1F (centres undefined) : -3.884

Record CC(C)N1CCc2c(c(COc3cncnc3)nn2CC2CC2)C1.O=C(O)C(F)(F)F . Reported Percent Effect: -1.489

Cc1nc(NC(=O)CCOCC(F)(F)F)ccc1Br yielded Percent Effect of 7.301

# molecule CC(=O)N1N=C(c2cccs2)OC1C(=O)Nc1ccc(C(C)C)cc1 (centres undefined) ; its Percent Effect = 90.69

The recorded Percent Effect for O=C(NCC1CC1)[C@@H]1CC[C@@H]2[C@@H](CCN2Cc2ccc(F)c(F)c2)O1.O=C(O)C(F)(F)F is 110.1

Looking up CS(=O)(=O)NCCn1ccc(-c2cccs2)n1 , I see its Percent Effect listed as -6.394

CCc1ccc(C(COC)NC(=O)c2ccc(O)nc2)o1 (centres undefined) yielded Percent Effect of -6.31

Looking up Cc1cc(C)n(-c2ccc(N3CCC4(CC3)OCCO4)nc2)n1 , I found its Percent Effect recorded as 6.34

Recorded result, COc1ccc(NC(=O)C2CC2)cc1OCc1cccnc1 , Percent Effect: -2.646

The recorded Percent Effect for entry CC(C)NC(=O)[C@@H]1C[C@@H](N)CN1C(=O)c1cc2c([nH]c1=O)CCCC2 equals 7.662

Reported Percent Effect ( O=C(NCC1CC1)[C@@H]1CC[C@@H]2[C@@H](CCN2CCOCc2ccccc2)O1 ) = -46.75

Record O=C(NCCCNc1ccccn1)NCC1CCS(=O)(=O)C1 (centres undefined) . Reported Percent Effect: 10.33

Cc1cc(C)n(CC(C)CNC(=O)CCc2ccco2)n1 (centres undefined) has a reported Percent Effect of 10.87

Record CC(=O)N1N=C(c2cccs2)OC1C(=O)NCc1ccc(C)o1 (centres undefined) , field Percent Effect: 124.5

Consider CNC(=O)c1noc(Cn2ncc3ccccc3c2=O)n1 . Its measured Percent Effect is -3.773

Just so you know, measured Percent Effect for COC(C)c1nc(CN2CCNCC2)cs1 (centres undefined) came out at 8.778

Lab note: Cc1nc(C)n(CC2CN(Cc3cccc(C(N)=O)c3)CCO2)n1 (centres undefined) gave Percent Effect of -4.426
